Values compiled from the supplement of paper PMC11316812.

Below, each entry is listed alongside its reported percentage of EdU-negative.
Test system: MCF7;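 further: secreted proteins added to cultured cells, EdU pulse at the end, nuclei found by Hoechst imaging, EdU status from nuclear versus surrounding ring intensity ratio, PBS as neutral control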
MEASUREMENT DESCRIPTION: percentage of EdU-negative (G0-arrested) nuclei per well, 72 h; higher = more G0 arrest
ASSAY CONTEXT: protein concentration 0.0225 µM; reference: sequence is the full UniProt precursor, the tested protein was the secreted form or ectodomain

[
  {
    "SEQUENCE CONTENT": "MWLLLTLSFLLASTAAQDGDKLLEGDECAPHSQPWQVALYERGRFNCGASLISPHWVLSAAHCQSRFMRVRLGEHNLRKRDGPEQLRTTSRVIPHPRYEARSHRNDIMLLRLVQPARLNPQVRPAVLPTRCPHPGEACVVSGWGLVSHNEPGTAGSPRSQVSLPDTLHCANISIISDTSCDKSYPGRLTNTMVCAGAEGRGAESCEGDSGGPLVCGGILQGIVSWGDVPCDNTTKPGVYTKVCHYLEWIRETMKRN [Q9H2R5]",
    "percentage of EdU-negative (%)": 22.4
  },
  {
    "SEQUENCE CONTENT": "MARGGRGRRLGLALGLLLALVLAPRVLRAKPTVRKERVVRPDSELGERPPEDNQSFQYDHEAFLGKEDSKTFDQLTPDESKERLGKIVDRIDNDGDGFVTTEELKTWIKRVQKRYIFDNVAKVWKDYDRDKDDKISWEEYKQATYGYYLGNPAEFHDSSDHHTFKKMLPRDERRFKAADLNGDLTATREEFTAFLHPEEFEHMKEIVVLETLEDIDKNGDGFVDQDEYIADMFSHEENGPEPDWVLSEREQFNEFRDLNKDGKLDKDEIRHWILPQDYDHAQAEARHLVYESDKNKDEKLTKEEILENWNMFVGSQATNYGEDLTKNHDEL",
    "percentage of EdU-negative (%)": 22.7
  },
  {
    "SEQUENCE CONTENT": "MRRLLIPLALWLGAVGVGVAELTEAQRRGLQVALEEFHKHPPVQWAFQETSVESAVDTPFPAGIFVRLEFKLQQTSCRKRDWKKPECKVRPNGRKRKCLACIKLGSEDKVLGRLVHCPIETQVLREAEEHQETQCLRVQRAGEDPHSFYFPGQFAFSKALPRS",
    "percentage of EdU-negative (%)": 27.7
  },
  {
    "SEQUENCE CONTENT": "MRPLAGGLLKVVFVVFASLCAWYSGYLLAELIPDAPLSSAAYSIRSIGERPVLKAPVPKRQKCDHWTPCPSDTYAYRLLSGGGRSKYAKICFEDNLLMGEQLGNVARGINIAIVNYVTGNVTATRCFDMYEGDNSGPMTKFIQSAAPKSLLFMVTYDDGSTRLNNDAKNAIEALGSKEIRNMKFRSSWVFIAAKGLELPSEIQREKINHSDAKNNRYSGWPAEIQIEGCIPKERS",
    "percentage of EdU-negative (%)": 27.2
  },
  {
    "SEQUENCE CONTENT": "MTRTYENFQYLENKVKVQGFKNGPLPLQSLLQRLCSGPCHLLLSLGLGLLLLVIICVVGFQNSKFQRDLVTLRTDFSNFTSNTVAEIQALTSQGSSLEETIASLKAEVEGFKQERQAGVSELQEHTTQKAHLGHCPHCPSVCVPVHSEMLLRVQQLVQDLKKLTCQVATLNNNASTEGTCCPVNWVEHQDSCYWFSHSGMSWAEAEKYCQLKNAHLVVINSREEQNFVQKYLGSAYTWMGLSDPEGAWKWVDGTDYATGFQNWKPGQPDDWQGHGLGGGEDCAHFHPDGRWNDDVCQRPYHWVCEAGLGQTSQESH [Q8IUN9]",
    "percentage of EdU-negative (%)": 24.9
  },
  {
    "SEQUENCE CONTENT": "MTTQLRVVHLLPLLLACFVQTSPKQEKMKMDCHKDEKGTIYDYEAIALNKNEYVSFKQYVGKHILFVNVATYCGLTAQYPELNALQEELKPYGLVVLGFPCNQFGKQEPGDNKEILPGLKYVRPGGGFVPSFQLFEKGDVNGEKEQKVFSFLKHSCPHPSEILGTFKSISWDPVKVHDIRWNFEKFLVGPDGIPVMRWSHRATVSSVKTDILAYLKQFKTK",
    "percentage of EdU-negative (%)": 26.1
  }
]
